Assay: Serum stability assay in human serum (LC/MS)
Details: human, Remaining peptide (%), 37 °C, incubation time 1 h, relative to 0 h = 100%, technical replicates
Numbered stars: 1 amine (or outer) side, 2 acyl side, 3 side chain; on linkers, the order of the positions; unused ones are H or OH. Bridge positions count the residues as written; N and C are the ends. Square brackets hold non-standard residues; d marks the D form. Peptide text beside a SMILES is read from it. Acbc(cis-1,3) = O=C([C@H]1C[C@@H](N[*:1])C1)[*:2]; X1 = O=C([C@@H]1CC[C@H](N[*:1])C1)[*:2]

compound: CC(C)C[C@@H]1NC(=O)[C@@H](Cc2ccc(O)cc2)NC(=O)CSC[C@H](C(N)=O)NC(=O)[C@H](C)NC(=O)[C@H](C)NC(=O)[C@H](Cc2ccc(O)cc2)NC(=O)[C@H](CCCNC(=N)N)NC(=O)[C@H](Cc2ccc(O)cc2)NC(=O)[C@H](C)NC(=O)[C@H](CO)NC(=O)[C@H](Cc2ccc(O)cc2)NC(=O)[C@H]([C@@H](C)O)NC(=O)[C@H](CO)NC(=O)[C@H](C)NC(=O)[C@H](Cc2ccc(O)cc2)NC(=O)[C@H](Cc2c[nH]cn2)NC1=O [GM3γ^210A] ({CH2CO}-[dY]LHYASTYSAYRYAA[dC]-NH2; thioether N-16)
display-unit: %
remaining at 1 h, 10 μM: 33.1

compound: CC[C@H](C)[C@@H]1NC(=O)[C@H](CO)NC(=O)[C@H](Cc2ccccc2)NC(=O)[C@H]2C[C@H](C2)NC(=O)[C@H](Cc2c[nH]cn2)NC(=O)[C@H](Cc2ccccc2)NC(=O)[C@@H](Cc2ccc(O)cc2)NC(=O)CSC[C@H](C(N)=O)NC(=O)[C@H](CC(C)C)NC(=O)[C@H](CCCNC(=N)N)NC(=O)[C@H](Cc2ccc(O)cc2)NC(=O)[C@H](CCCNC(=N)N)NC(=O)[C@H](Cc2ccccc2)NC1=O [GM2] ({CH2CO}-[dY]FH[Acbc(cis-1,3)]FSIFRYRL[dC]-NH2; thioether N-13)
display-unit: %
remaining at 1 h, 10 μM: 48.3

compound: CC(C)C[C@@H]1NC(=O)[C@@H](Cc2ccc(O)cc2)NC(=O)CSC[C@H](C(N)=O)NC(=O)[C@H](C)NC(=O)[C@H](C)NC(=O)[C@H](Cc2ccc(O)cc2)NC(=O)[C@H](CCCNC(=N)N)NC(=O)[C@H](Cc2ccc(O)cc2)NC(=O)[C@@H]2CC[C@@H](C2)NC(=O)[C@H](CO)NC(=O)[C@H](Cc2ccc(O)cc2)NC(=O)[C@H]([C@@H](C)O)NC(=O)[C@H](CO)NC(=O)[C@H](C)NC(=O)[C@H](Cc2ccc(O)cc2)NC(=O)[C@H](Cc2c[nH]cn2)NC1=O [GM3] ({CH2CO}-[dY]LHYASTYS[X1]YRYAA[dC]-NH2; thioether N-16)
display-unit: %
remaining at 1 h, 10 μM: 60.8

====

Target: SARS-CoV-2 M^pro (Severe acute respiratory syndrome coronavirus 2, UniProt P0DTD1)
Test: biochemical
Format: biochemical
Numbered stars: 1 amine (or outer) side, 2 acyl side, 3 side chain; on linkers, the order of the positions; unused ones are H or OH. Bridge positions count the residues as written; N and C are the ends. Square brackets hold non-standard residues; d marks the D form. Peptide text beside a SMILES is read from it. X1 = O=C([C@@H]1CC[C@H](N[*:1])C1)[*:2]

compound: CC[C@H](C)[C@@H]1NC(=O)[C@H](Cc2ccc(O)cc2)NC(=O)[C@H](CC(C)C)NC(=O)[C@H](CC(=O)O)NC(=O)[C@H](CCCNC(=N)N)NC(=O)[C@H](Cc2ccccc2)NC(=O)[C@@H]2CC[C@@H](C2)NC(=O)[C@H](Cc2c[nH]cn2)NC(=O)[C@H](Cc2ccccc2)NC(=O)[C@@H](Cc2ccc(O)cc2)NC(=O)CSC[C@H](C(N)=O)NC(=O)CNC(=O)[C@H](CC(C)C)NC1=O [GM5] ({CH2CO}-[dY]FH[X1]FRDLYILG[dC]-NH2; thioether N-13)
target-of-assay: SARS-CoV-2 M^pro (Severe acute respiratory syndrome coronavirus 2, UniProt P0DTD1)
inhibition at 50.1 µM [%]: 100

====

Experiment: Serum stability assay in human serum (LC/MS)
Settings: human, Remaining peptide (%), 37 °C, incubation time 50 h, relative to 0 h = 100%, technical replicates
Numbered stars: 1 amine (or outer) side, 2 acyl side, 3 side chain; on linkers, the order of the positions; unused ones are H or OH. Bridge positions count the residues as written; N and C are the ends. Square brackets hold non-standard residues; d marks the D form. Peptide text beside a SMILES is read from it. Acbc(cis-1,3) = O=C([C@H]1C[C@@H](N[*:1])C1)[*:2]; X1 = O=C([C@@H]1CC[C@H](N[*:1])C1)[*:2]
quantity: remaining at 50 h, 10 μM (%)

molecule: CC[C@H](C)[C@@H]1NC(=O)[C@H](Cc2ccc(O)cc2)NC(=O)[C@H](CC(C)C)NC(=O)[C@H](CC(=O)O)NC(=O)[C@H](CCCNC(=N)N)NC(=O)[C@H](Cc2ccccc2)NC(=O)[C@H](C)NC(=O)[C@H](Cc2c[nH]cn2)NC(=O)[C@H](Cc2ccccc2)NC(=O)[C@@H](Cc2ccc(O)cc2)NC(=O)CSC[C@H](C(N)=O)NC(=O)CNC(=O)[C@H](CC(C)C)NC1=O [GM5γ^24A] ({CH2CO}-[dY]FHAFRDLYILG[dC]-NH2; thioether N-13)
test-result: 23
--
molecule: CC(C)C[C@@H]1NC(=O)[C@H](CC(N)=O)NC(=O)[C@H](CC(C)C)NC(=O)[C@H]2C[C@H](C2)NC(=O)[C@H](CCC(N)=O)NC(=O)[C@H](Cc2ccccc2)NC(=O)[C@@H](Cc2ccc(O)cc2)NC(=O)CSC[C@H](C(N)=O)NC(=O)CNC(=O)[C@@H]2CCCN2C(=O)[C@H](CCCNC(=N)N)NC(=O)[C@H](Cc2ccc(O)cc2)NC(=O)CNC1=O [GM4H3Q] ({CH2CO}-[dY]FQ[Acbc(cis-1,3)]LNLGYRPG[dC]-NH2; thioether N-13)
test-result: 70.1
--
molecule: CC(C)C[C@@H]1NC(=O)[C@H]([C@@H](C)O)NC(=O)[C@H](Cc2ccc(O)cc2)NC(=O)[C@H]([C@@H](C)O)NC(=O)[C@H](Cc2c[nH]cn2)NC(=O)[C@@H]2CCCN2C(=O)[C@@H]2CCCN2C(=O)[C@H](Cc2ccccc2)NC(=O)[C@H](C)NC(=O)[C@H](Cc2c[nH]cn2)NC(=O)[C@H](Cc2ccccc2)NC(=O)[C@@H](Cc2ccc(O)cc2)NC(=O)CSC[C@H](C(N)=O)NC1=O [GM1γ^14A] ({CH2CO}-[dY]FHAFPPHTYTL[dC]-NH2; thioether N-13)
test-result: 4.46
--
molecule: CC(C)C[C@@H]1NC(=O)[C@H](CC(N)=O)NC(=O)[C@H](CC(C)C)NC(=O)[C@H]2C[C@H](C2)NC(=O)[C@H](Cc2c[nH]cn2)NC(=O)[C@H](Cc2ccccc2)NC(=O)[C@@H](Cc2ccc(O)cc2)NC(=O)CSC[C@H](C(N)=O)NC(=O)CNC(=O)[C@@H]2CCCN2C(=O)[C@H](CCCNC(=N)N)NC(=O)[C@H](Cc2ccc(O)cc2)NC(=O)CNC1=O [GM4] ({CH2CO}-[dY]FH[Acbc(cis-1,3)]LNLGYRPG[dC]-NH2; thioether N-13)
test-result: 67.9
--
molecule: CC[C@H](C)[C@@H]1NC(=O)[C@H](Cc2ccc(O)cc2)NC(=O)[C@H](CC(C)C)NC(=O)[C@H](CC(=O)O)NC(=O)[C@H](CCCNC(=N)N)NC(=O)[C@H](Cc2ccccc2)NC(=O)[C@@H]2CC[C@@H](C2)NC(=O)[C@H](Cc2c[nH]cn2)NC(=O)[C@H](Cc2ccccc2)NC(=O)[C@@H](Cc2ccc(O)cc2)NC(=O)CSC[C@H](C(N)=O)NC(=O)CNC(=O)[C@H](CC(C)C)NC1=O [GM5] ({CH2CO}-[dY]FH[X1]FRDLYILG[dC]-NH2; thioether N-13)
test-result: 30.7
--
molecule: CC(C)C[C@@H]1NC(=O)[C@H]([C@@H](C)O)NC(=O)[C@H](Cc2ccc(O)cc2)NC(=O)[C@H]([C@@H](C)O)NC(=O)[C@H](Cc2c[nH]cn2)NC(=O)[C@@H]2CCCN2C(=O)[C@@H]2CCCN2C(=O)[C@H](Cc2ccccc2)NC(=O)[C@H]2C[C@H](C2)NC(=O)[C@H](Cc2c[nH]cn2)NC(=O)[C@H](Cc2ccccc2)NC(=O)[C@@H](Cc2ccc(O)cc2)NC(=O)CSC[C@H](C(N)=O)NC1=O [GM1] ({CH2CO}-[dY]FH[Acbc(cis-1,3)]FPPHTYTL[dC]-NH2; thioether N-13)
test-result: 67.1
--
molecule: CC(C)C[C@@H]1NC(=O)[C@H](C)NC(=O)[C@H](Cc2c[nH]cn2)NC(=O)[C@H](Cc2ccccc2)NC(=O)[C@@H](Cc2ccc(O)cc2)NC(=O)CSC[C@H](C(N)=O)NC(=O)CNC(=O)[C@@H]2CCCN2C(=O)[C@H](CCCNC(=N)N)NC(=O)[C@H](Cc2ccc(O)cc2)NC(=O)CNC(=O)[C@H](CC(C)C)NC(=O)[C@H](CC(N)=O)NC1=O [GM4γ^14A] ({CH2CO}-[dY]FHALNLGYRPG[dC]-NH2; thioether N-13)
test-result: 12.3
